Assay Target: T1, Histidine-tagged human 4-1BB protein (h4-1BB-His) (human, UniProt Q07011 24-186)
T1 construct: not shown: histidine tag
Assay Remarks: SPR (Biacore T200), antibody on Protein A chip, h4-1BB-His injected;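 also: dissociation phase followed for 300 s, Kd derived as koff divided by kon from the kinetic fit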
// Kd lookup, one value per entry

Binder: 1C4-H2K4-IgG4 (antibody, V domains shown, humanized) VH: QVQMVQSGAEVKKPGASVKLSCKASGFTFSSSYINWLRQAPGQSLEWIGWIFAGTGGTYYNQKFTGRVQITRDTSASTAYMELSSLRSEDTAIYYCARHSPRATLFDFWGQGTTLTVSS VL: EIVLTQSPATLSASPGERVTMSCRASSSVNHMHWYQQRPGFSPRAWIYATSNLASGIPARFSGSGSGTSYSLTISSLEPEDFATYYCQQWSSNPYTFGGGTKLEIK
Kd: 20.7 nM
--
Binder: 5F9-H1K1-IgG4 (antibody, V domains shown, humanized) VH: QVQLQESGPGLVKPSETLSLTCTVSGFSLTTYDISWVRQPPGKGLEWIGVIWTGGGTNYNSSFMSRVTISKDTSKNQVSLKLSSVTAADTAVYYCERVDYWGQGTTVTVSS VL: DVVMTQSPLSLPVTLGQPASISCRSSQSLVHSNGNTYLHWFQQRPGQSPRLLIYKVSNRFSGVPDRFSGSGSGTAFTFKISRVEAEDVGVYYCSQNTHVPWTFGGGTKVEIK
Kd: 11.4 nM
